These measurements were taken from the supplement of paper PMC12350171.

test system: S. enterica typhimurium tolC KO; test: growth AUC normalised to DMSO control (median) (fraction of control); higher = less growth inhibition, active = hit call of the paper; conditions: 20 µM
Where a name gives a salt, the structure may show the parent alone.
Entries and their growth AUC normalised to DMSO control values follow.
Form rule: numeric answer, no unit written next to it.

compound | testResult
CCN(CC)CCCC(C)Nc1ccnc2cc(Cl)ccc12 (centres undefined) [Chloroquine diphosphate] | 1

What measured growth AUC normalised to DMSO control goes with CN(C)CCOC(c1ccccc1)c1ccccc1 [Diphenhydramine hydrochloride] ?
1

Now try CN(C)[C@@H]1C(=O)C(C(=O)NCNCCCC[C@H](N)C(=O)O)=C(O)[C@@]2(O)C(=O)C3=C(O)c4c(O)cccc4[C@@](C)(O)[C@H]3C[C@@H]12 .
0.94

Now try CCCc1nn(C)c2c(=O)[nH]c(-c3cc(S(=O)(=O)N4CCN(C)CC4)ccc3OCC)nc12 .
1

Now try COCC1=C(C(=O)OC(C)OC(=O)OC(C)C)N2C(=O)[C@@H](NC(=O)/C(=N\OC)c3csc(N)n3)[C@H]2SC1 (some centres undefined) .
0.338

Now try NC(=O)c1cccnc1 [Nicotinamide] .
1.01

* * *

test system: P. vulgatus WT; assay: growth AUC normalised to DMSO control (median) (fraction of control); higher = less growth inhibition, active = hit call of the paper; details: 20 µM;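 active = normalised median growth AUC below 0.1 of DMSO control; inactive = AUC 0.1 or higher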
Counter-ions that a name gives are not always drawn.
Hello, when you answer, please use one of the following outcomes: True for active, False for inactive

molecule | cat
Cc1[nH]cnc1CN1CCc2c(c3ccccc3n2C)C1=O [Alosetron hydrochloride] | False
CC1CCc2c(N3CCC(O)CC3)c(F)cc3c(=O)c(C(=O)O)cn1c23 (configuration not stated) [Nadifloxacin] | True

I'd appreciate the recorded outcome for CCCCNc1c(C(=O)OCC)c(C)nc2c1cnn2CC [Tracazolate hydrochloride] from this test.
False

Now try O=c1[nH]c(=O)n([C@H]2C[C@H](O)[C@@H](CO)O2)cc1F [Floxuridine] .
True

Now try NC(=O)OCC(COC(N)=O)c1ccccc1 [Felbamate] .
False

Now try CO[C@@H]1[C@@H](O[C@@H]2O[C@H](C)[C@@H](O[C@H]3C[C@@](C)(O)[C@@H](O)[C@H](C)O3)[C@H](N(C)C)[C@H]2O)[C@@H](CC=O)C[C@@H](C)[C@@H](O[C@H]2CC[C@H](N(C)C)[C@@H](C)O2)/C=C/C=C/C[C@@H](C)OC(=O)C[C@H]1OC(C)=O [Acetyl spiramycin] .
True

Now try Nc1c2c(nc3ccccc13)CCCC2 [Tacrine hydrochloride] .
False

* * *

system: P. vulgatus RND KO; test: growth AUC normalised to DMSO control (median) (fraction of control); higher = less growth inhibition, active = hit call of the paper; details: 20 µM
Entries and their growth AUC normalised to DMSO control values follow.
Form rule: numeric answer, no unit written next to it.

Completed entries (count: 4):
molecule | systemTested | testResult
C[n+]1ccccc1/C=N/O [Pralidoxime chloride] | P. vulgatus RND KO | 1.01
CC(C)NNC(=O)c1ccncc1 [Iproniazide phosphate] | P. vulgatus RND KO | 1.02
OCC(CO)N[C@H]1C[C@](O)(CO)[C@@H](O)[C@H](O)[C@H]1O | P. vulgatus RND KO | 1.04
CN1CC(=O)N2[C@H](c3ccc4c(c3)OCO4)c3[nH]c4ccccc4c3C[C@@H]2C1=O | P. vulgatus RND KO | 0.919

What measured growth AUC normalised to DMSO control goes with CN1CCN(C2=Nc3cc(Cl)ccc3Nc3ccccc32)CC1 ?
1.01

* * *

system: S. enterica typhimurium WT; experiment: growth AUC normalised to DMSO control (median) (fraction of control); higher = less growth inhibition, active = hit call of the paper; details: 20 µM
Where a name gives a salt, the structure may show the parent alone.
measuredProperty: growth AUC normalised to DMSO control
Form rule: numeric answer, no unit written next to it.

Completed entries (count: 6):
compound | growth AUC normalised to DMSO control
CCCC1O[C@@H]2C[C@H]3[C@@H]4CCC5=CC(=O)C=C[C@]5(C)[C@H]4[C@@H](O)C[C@]3(C)[C@]2(C(=O)CO)O1 (some centres not stated) [Budesonide] | 0.991
C#C[C@]1(O)CC[C@H]2[C@@H]3CCC4=C(CCC(=O)C4)[C@H]3CC[C@@]21C | 0.996
Cc1ncc(C[n+]2csc(CCO)c2C)c(N)n1 [Thiamine hydrochloride] | 0.998
Cn1nnc2c(C(N)=O)ncn2c1=O [Temozolomide] | 0.967
CC1=NN(c2ccccc2)C(=O)C1 | 1
CC1(C)S[C@@H]2[C@H](NC(=O)C(C(=O)O)c3ccccc3)C(=O)N2[C@H]1C(=O)O (some centres not stated) [Carbenicillin disodium salt] | 0.0868

Please find the next compound below.
What measured growth AUC normalised to DMSO control goes with OC(CCN1CCCC1)(c1ccccc1)C1CCCCC1 (configuration not stated) [Procyclidine hydrochloride] ?
1.01

* * *

Entries and their growth AUC normalised to DMSO control values follow.
tested on: S. enterica typhimurium tolC KO; assay: growth AUC normalised to DMSO control (median) (fraction of control); higher = less growth inhibition, active = hit call of the paper; conditions: 20 µM
Counter-ions that a name gives are not always drawn.
Form rule: numeric answer, no unit written next to it.

Completed entries (count: 4):
molecule | systemTested | growth AUC normalised to DMSO control
CC(C(=O)O)c1ccc(CC2CCCC2=O)cc1 (stereo not drawn) | S. enterica typhimurium tolC KO | 1.01
O=C1Cc2cc(CCN3CCN(c4nsc5ccccc45)CC3)c(Cl)cc2N1 [Ziprasidone hydrochloride monohydrate] | S. enterica typhimurium tolC KO | 1
CS(=O)(=O)c1ccc([C@@H](O)[C@@H](CF)NC(=O)C(Cl)Cl)cc1 | S. enterica typhimurium tolC KO | 0.00279
O=C(OCCOCCO)c1ccccc1Nc1cccc(C(F)(F)F)c1 [Etofenamate] | S. enterica typhimurium tolC KO | 0.858

What measured growth AUC normalised to DMSO control goes with O=C(c1ccc(OCCN2CCCCC2)cc1)c1c(-c2ccc(O)cc2)sc2cc(O)ccc12 [Raloxifene hydrochloride] ?
1.01

Now try CC(C)c1cc2c(cc1S(=O)(=O)O)[C@@]1(C)CCC[C@@](C)(C(=O)O)[C@@H]1CC2 [Ecabet sodium] .
0.988

Now try O=c1n(CCCN2CCN(c3cccc(Cl)c3)CC2)nc2ccccn12 [Trazodone hydrochloride] .
0.964

Now try CC[N+](C)(CC)CCOC(=O)C1c2ccccc2Oc2ccccc21 [Methantheline bromide] .
0.995

* * *

tested on: S. enterica typhimurium tolC KO; assay: growth AUC normalised to DMSO control (median) (fraction of control); higher = less growth inhibition, active = hit call of the paper; conditions: 20 µM
Where a name gives a salt, the structure may show the parent alone.
Entries and their growth AUC normalised to DMSO control values follow.
Form rule: numeric answer, no unit written next to it.

Completed entries (count: 2):
compound | measuredProperty | testResult
CC[C@@H]([C@H](C)O)n1ncn(-c2ccc(N3CCN(c4ccc(OC[C@@H]5CO[C@@](Cn6cncn6)(c6ccc(F)cc6F)C5)cc4)CC3)cc2)c1=O [Posaconazole hydrate] | growth AUC normalised to DMSO control | 0.979
CO/N=C(\C(=O)N[C@@H]1C(=O)N2C(C(=O)[O-])=C(C[n+]3cccc4c3CCC4)CS[C@H]12)c1csc(N)n1 [Cefpirome sulfate] | growth AUC normalised to DMSO control | 0.00385

What measured growth AUC normalised to DMSO control goes with CN(C)CCC=C1c2ccccc2C=Cc2ccccc21 [Cyclobenzaprine hydrochloride] ?
0.853

Now try O=C(O)C[C@H](O)C[C@H](O)/C=C/c1c(C2CC2)nc2ccccc2c1-c1ccc(F)cc1 .
0.999

Now try O=C(NC1CCN(CCCCC2(C(=O)NCC(F)(F)F)c3ccccc3-c3ccccc32)CC1)c1ccccc1-c1ccc(C(F)(F)F)cc1 [Lomitapide] .
1

Now try CC[C@]12CCCN3CCc4c(n(c5ccccc45)[C@@](O)(C(=O)OC)C1)[C@@H]32 .
1

Now try N[C@@H](C(=O)N[C@@H]1C(=O)N2C(C(=O)O)=C(Cl)CC[C@H]12)c1ccccc1 .
0.0264

* * *

test system: S. enterica typhimurium WT; assay: growth AUC normalised to DMSO control (median) (fraction of control); higher = less growth inhibition, active = hit call of the paper; conditions: 20 µM
Structures can show the parent of a compound that is named as a salt.
Label class 1 for high-side growth AUC normalised to DMSO control (at or above 1) and class 0 for low-side growth AUC normalised to DMSO control (below it).

Field: example entries. Status: answers known.
molecule | systemTested | cat
CCCCc1oc2ccccc2c1C(=O)c1cc(I)c(OCCN(CC)CC)c(I)c1 [Amiodarone hydrochloride] | S. enterica typhimurium WT | class 1
CC1CCc2cc(F)cc3c(=O)c(C(=O)O)cn1c23 (stereo not drawn) [Flumequine] | S. enterica typhimurium WT | class 0
Cc1cn([C@H]2C[C@H](N=[N+]=[N-])[C@@H](CO)O2)c(=O)[nH]c1=O [Zidovudine] | S. enterica typhimurium WT | class 0

Here is another molecule to look at.
Has Nc1ccc(S(=O)(=O)Nc2ccc(Cl)nn2)cc1 [Sulfachloropyridazine] a recorded growth AUC normalised to DMSO control greater than or equal to 1?
class 0
